protocol text: Hydrolysis of prodrugs to treprostinil at pH 6, 7, 8 and 40 C
Type: physicochemical
test parameters: pH 7, 40 C., 1 week
recorded metric: Hydrolysis to treprostinil, % Area, t = 1 week

• CCCCCC(CCC1C(O)CC2Cc3c(cccc3OCC(=O)O)CC21)OC(=O)c1ccc(O)cc1 (centres unmarked) [Prodrug LXVIII] = 0.00 % Area
• CCCCCC(CCC1C(O)CC2Cc3c(cccc3OCC(=O)O)CC21)OC(=O)COc1ccccc1 (centres unmarked) [Prodrug LXV] = 0.96 % Area
• CCCCCC(CCC1C(O)CC2Cc3c(cccc3OCC(=O)O)CC21)OC(=O)C(C)C (centres unmarked) [Prodrug LXVII] = 0.00 % Area
• CCCCCC(CCC1C(OC(=O)OC)CC2Cc3c(cccc3OCC(=O)O)CC21)OC(=O)OC (centres unmarked) [Prodrug LXXI, treprostinil dicarbonate] = 0.00 % Area

Look up Hydrolysis to treprostinil, % Area, t = 1 week for the entries below, preserving their order.
1. CCCCCC(CCC1C(O)CC2Cc3c(cccc3OCC(=O)O)CC21)OC(=O)C12CC3CC(CC(C3)C1)C2 (centres unmarked) [Prodrug LXIX]
2. CCCCCC(CCC1C(OC(=O)CC)CC2Cc3c(cccc3OCC(=O)O)CC21)OC(=O)CC (centres unmarked) [Prodrug LXX, treprostinil dipropionate]
3. CCCCCC(CCC1C(O)CC2Cc3c(cccc3OCC(=O)O)CC21)OC(=O)COc1ccc(OC(F)(F)F)cc1 (centres unmarked) [Prodrug LXIV]
4. CCCCCC(CCC1C(O)CC2Cc3c(cccc3OCC(=O)O)CC21)OC(=O)c1ccc(O)c(O)c1 (centres unmarked) [Prodrug LXVI]

Found:
1: 0.00 % Area; 2: 0.00 % Area; 3: 0.46 % Area; 4: 0.05 % Area
